B1: F1*; the commonest letter at each place (parent)
chain: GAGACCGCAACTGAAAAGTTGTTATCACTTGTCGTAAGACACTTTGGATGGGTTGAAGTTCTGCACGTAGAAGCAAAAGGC

Variants of: B1
Test Name: fraction ligated after 30 min (ligated reads / total reads); higher = more ligase activity
Run Conditions: with F1*sub RNA substrate (template-directed ligation), 42 °C
Please respond with reported fraction ligated for every item in the list.

Construct Sequence: GAGACCGCAACTGAAAAGTTGTTATCACTTGTCGTAAGAGACATTGGATGGGTTGAAGTTCTGCACGTAGAAGCAAAAGGC
Test Value: 0.817

Construct Sequence: GAGACCGCAACTGAAAAGTTGTTGTCACTTGTCGTAATACACTTTGGATGGGTTGAAGTTCTGCACGTAGAAGCAAAAGGC
Test Value: 0.745

Construct Sequence: GAGACCGCAACTGAAAAGTTGTTATCACTTGTCGTAAGGCACTTTGGATGGGTTCAAGTTCTGCACGTAGAAGCAAAAGGC
Test Value: 0.801

Construct Sequence: GAGACCGCAACTGAAAAGTTGTTATCACTAGTCGTAAGACACTTTGGAGGGGTTGAAGTTCTGCACGTAGAAGCAAAAGGC
Test Value: 0.754

Construct Sequence: GAGACCGCAACTGAAAAGTTGTTAACACCTGTCGTAAGACACTTTGGATGGGTTGAAGTTCTGCACGTAGAAGCAAAAGGC
Test Value: 0.187

Construct Sequence: GAGACCGCAACTGAAAAGTTGTGATCACTTGTCGTAAGACACTTTGGATGGGTTGGAGTTCTGCACGTAGAAGCAAAAGGC
Test Value: 0.792

For the 4 variants below, give their fraction ligated values.
1. GAGACCGCAACTGAAAAGTTGTTATCACTTGTCGTAAGACACTTTGCACGGGTTGAAGTTCTGCACGTAGAAGCAAAAGGC
2. GAGACCGCAACTGAAAAGTTGTTAGCACTTGTCGTAAGACACTTCGGATGGGTTGAAGTTCTGCACGTAGAAGCAAAAGGC
3. GAGACCGCAACTGAAAAGTTGTTATCACTTGTCGCAAGACACCTTGGATGGGTTGAAGTTCTGCACGTAGAAGCAAAAGGC
4. GAGACCGCAACTGAAAAGTTGTTATCACTTGTCGTCAGACACTTTGGATGGGTTTAAGTTCTGCACGTAGAAGCAAAAGGC

0.0543
0.0153
0.777
0.797

Given the variant GAGACCGCAACTGAAAAGTTGTTAACACTTGTCGTAAGACATTTTGGATGGGTTGAAGTTCTGCACGTAGAAGCAAAAGGC , write its reported fraction ligated.
0.785
